Data provenance is ChEMBL document CHEMBL4368904.

Recorded measurements of Ki, one per entry
# SUBJECT OF TEST: Sigma intracellular receptor 2 (Homo sapiens)
# Sequence (Q5BJF2 whole entry): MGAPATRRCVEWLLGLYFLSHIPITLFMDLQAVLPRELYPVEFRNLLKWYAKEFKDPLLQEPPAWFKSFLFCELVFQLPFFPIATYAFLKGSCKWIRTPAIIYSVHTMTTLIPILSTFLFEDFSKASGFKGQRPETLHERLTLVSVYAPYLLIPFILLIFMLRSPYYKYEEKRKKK
# RUN DESCRIPTION: Inhibition of sigma receptor 2 (unknown origin)
Dear colleague, please send the value followed by its unit.

INSERT INTO assay_data (chemical_smiles, observation_type, reported) VALUES
  ('COC(=O)c1ncn([C@H]2[C@H](O)[C@H](O)[C@]3(CO)C[C@H]23)n1', 'Ki', '1720 nM'),
  ('Nc1ncnc2c1ncn2[C@@H]1O[C@H](C(=O)NC2CC2)[C@@H](O)[C@H]1O', 'Ki', '4350 nM'),
  ('OC[C@@]12C[C@@H]1[C@@H](n1cnc3c(NC(C4CCC4)C4CCC4)ncnc31)[C@H](O)[C@@H]2O', 'Ki', '753 nM');

Consider the compound `O[C@@H]1[C@H](O)[C@@H](CCl)O[C@H]1n1cnc2c(N[C@H]3C[C@H]4CC[C@@H]3C4)ncnc21` and give its measured Ki. 432 nM

Consider the compound `CCSC[C@H]1O[C@@H](n2cnc3c(NC(C4CCC4)C4CCC4)ncnc32)[C@H](O)[C@@H]1O` and give its measured Ki. 642 nM

Consider the compound `Nc1ncnc2c1ncn2[C@@H]1O[C@H](C(=O)O)[C@@H](O)[C@H]1O` and give its measured Ki. 796 nM

---

Recorded measurements of inhibition, one per entry
# SUBJECT OF TEST: Adenosine receptor A1 (Homo sapiens)
# RUN DESCRIPTION: Displacement of [3H]N6-R-phenylisopropyladenosine from human A1A adenosine receptor expressed in CHO cell membranes at 10 uM after 60 mins by scintillation proximity assay relative to adenosine 5-N-ethyluronamide
Provide the reading as a plain figure in %.

INSERT INTO results (chemical_smiles, observation_type, reported) VALUES
  ('Nc1ncnc2c1ncn2[C@@H]1O[C@H](C(=O)O)[C@@H](O)[C@H]1O', 'inhibition', 24),
  ('O[C@H]1[C@H](n2cnc3c(NC(C4CCC4)C4CCC4)nc(Cl)nc32)[C@H]2C[C@@]2(CSc2ccccc2F)[C@H]1O', 'inhibition', 45),
  ('CCOC(=O)[C@@]12C[C@@H]1[C@@H](n1cnc3c(NC(C4CC4)C4CC4)nc(Cl)nc31)[C@@H]1OC(C)(C)O[C@@H]12', 'inhibition', 49);

Turning now to a further molecule:
Consider the molecule `COC(=O)c1ncn([C@H]2[C@H](O)[C@H](O)[C@]3(CO)C[C@H]23)n1` and give its measured inhibition. 6

---

Recorded measurements of Emax, one per entry
# SUBJECT OF TEST: UniProtKB Q60612
# Sequence (Q60612 whole entry): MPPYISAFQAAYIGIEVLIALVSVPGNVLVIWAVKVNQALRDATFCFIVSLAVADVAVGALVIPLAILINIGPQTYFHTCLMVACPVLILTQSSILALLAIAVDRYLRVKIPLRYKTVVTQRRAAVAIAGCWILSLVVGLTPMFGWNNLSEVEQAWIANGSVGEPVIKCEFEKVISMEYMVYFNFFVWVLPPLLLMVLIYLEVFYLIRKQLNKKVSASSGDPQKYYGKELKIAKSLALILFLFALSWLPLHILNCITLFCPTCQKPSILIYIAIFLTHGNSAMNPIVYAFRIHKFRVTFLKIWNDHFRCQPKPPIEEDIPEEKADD
# RUN DESCRIPTION: Agonist activity at mouse A1A adenosine receptor at 10 uM after 60 mins by [35S]GTPgammaS binding assay relative to (2S,3S,4R,5R)-5-(6-amino-9H-purin-9-yl)-N-ethyl-3,4-dihydroxytetrahydrofuran-2-carboxamide
# Assay type: functional
Provide the reading as a plain figure in %.

INSERT INTO results (chemical_smiles, reported) VALUES
  ('OC[C@@]12C[C@@H]1[C@@H](n1cnc3c(NC(C4CCC4)C4CCC4)ncnc31)[C@H](O)[C@@H]2O', 97);

Find the measured Emax: item `O[C@H]1[C@H](n2cnc3c(N[C@H]4C[C@H]5CC[C@@H]4C5)nc(Cl)nc32)[C@H]2C[C@@]2(CCl)[C@H]1O` , target or system UniProtKB Q60612. 123

Find the measured Emax: item `OC[C@@]12C[C@@H]1[C@@H](n1cnc3c(N[C@H]4C[C@H]5CC[C@@H]4C5)nc(Cl)nc31)[C@H](O)[C@@H]2O` , target or system UniProtKB Q60612. 104

Find the measured Emax: item `OC[C@H]1O[C@@H](n2cnc3c(NC(C4CCC4)C4CCC4)nc(Cl)nc32)[C@H](O)[C@@H]1O` , target or system UniProtKB Q60612. 90
